- System: Staphylococcus aureus
- Assay protocol: Antibacterial activity against Staphylococcus aureus containing DNA gyrase D83N mutations
- Type: functional
MIC for assorted molecules
Number in µg/mL, nothing else.

Consider the following illustrative entries.
COc1ccc2ncc(F)c([C@@H](O)CC[C@@H]3CCN(C4CC(c5ccccc5)C4)C[C@@H]3C(=O)O)c2c1 (some centres undefined)	22.6
COc1ccc2ncc(F)c([C@@H](O)CC[C@@H]3CCN(C4CC(c5ccccc5F)C4)C[C@@H]3C(=O)O)c2c1 (some centres undefined)	16

Now let's try a different one.
Exercise: Identify measured MIC corresponding to COc1ccc2ncc(F)c([C@@H](O)CC[C@@H]3CCN(C4CC(c5cc(F)cc(F)c5)C4)C[C@@H]3C(=O)O)c2c1 (some centres undefined)
Solution: 5.7
